Assay: Kinetic solubility in pH 2, 5 and 7 buffers at RT
Assay type: physicochemical
Settings: 19 °C, aqueous buffer, thermodynamic from solid; pH 7 buffer, 2 hrs, RT; read-out: S: solubility
Experimental endpoint: solubility at 2 h (µg/mL)
Answer with a number only, understood to be in µg/mL.

Q) Returns the measured solubility at 2 h for the input compound. Input: COc1cc(Nc2nccc(Nc3cccnc3-c3ccccn3)n2)ccc1N1CCN(C)CC1 [Freebase Form A]
A) 1

* * *

Assay: Pharmacokinetic and tissue distribution study
Type: in vivo, CD-1 male mice
Settings: male, CD-1, mouse; mice, 20 mg/kg PO; pancreas
Experimental endpoint: half-life (h)
Answer with a number only, understood to be in h.

Q) Returns the measured half-life for the input compound. Input: COc1cc(Nc2nccc(Nc3cccnc3-c3ccccn3)n2)ccc1N1CCN(C)CC1
A) 2.6

* * *

Experiment: Pharmacokinetics and relative bioavailability after a single oral dose (two liquid formulations, powder in capsule)
Format: in vivo, male Beagle dogs
Details: male, Beagle, dog, plasma, po, 2 mg/kg, Powder in Capsule (Table 45), 2 mg/kg oral, male Beagle dogs, Mean
Experimental endpoint: Tmax (h)
Answer with a number only, understood to be in h.

Q) Returns the measured Tmax for the input compound. Input: COc1cc(Nc2nccc(Nc3cccnc3-c3ccccn3)n2)ccc1N1CCN(C)CC1
A) 3

* * *

Assay: Pharmacokinetics and relative bioavailability after a single oral dose (two liquid formulations, powder in capsule)
Format: in vivo, male Beagle dogs
Conditions: male, Beagle, dog, plasma, po, 5 mg/kg, Powder in Capsule (Table 45), 5 mg/kg oral, male Beagle dogs, Mean
Experimental endpoint: AUC(0-inf) (ng·h/mL)
Answer with a number only, understood to be in ng·h/mL.

Q) Returns the measured AUC(0-inf) for the input compound. Input: COc1cc(Nc2nccc(Nc3cccnc3-c3ccccn3)n2)ccc1N1CCN(C)CC1
A) 160

* * *

Experiment: Pharmacokinetic and tissue distribution study
Type: in vivo, CD-1 male mice
Settings: male, CD-1, mouse; mice, 20 mg/kg PO; kidney
Experimental endpoint: Tmax (h)
Answer with a number only, understood to be in h.

Q) Returns the measured Tmax for the input molecule. Input: COc1cc(Nc2nccc(Nc3cccnc3-c3ccccn3)n2)ccc1N1CCN(C)CC1
A) 2.3

* * *

Assay: Preliminary brain PK study
Type: in vivo
Settings: mouse, mice, brain tissue, Table 5, route and dose not printed (FIG. 4A: intravenous and oral)
Experimental endpoint: AUC(0-inf) (µg·h/mL)
Answer with a number only, understood to be in µg·h/mL.

Q) Returns the measured AUC(0-inf) for the input compound. Input: COc1cc(Nc2nccc(Nc3cccnc3-c3ccccn3)n2)ccc1N1CCN(C)CC1
A) 10.3

* * *

Experiment: Pharmacokinetics and relative bioavailability after a single oral dose (two liquid formulations, powder in capsule)
Format: in vivo, male Beagle dogs
Conditions: male, Beagle, dog, plasma, po, 2 mg/kg, Formulation #1 (Table 43), 2 mg/kg oral, male Beagle dogs, Mean
Experimental endpoint: AUC(0-inf) (ng·h/mL)
Answer with a number only, understood to be in ng·h/mL.

Q) Returns the measured AUC(0-inf) for the input molecule. Input: COc1cc(Nc2nccc(Nc3cccnc3-c3ccccn3)n2)ccc1N1CCN(C)CC1
A) 74

* * *

Assay: Pharmacokinetics and relative bioavailability after a single oral dose (two liquid formulations, powder in capsule)
Format: in vivo, male Beagle dogs
Details: male, Beagle, dog, plasma, po, 2 mg/kg, Powder in Capsule (Table 45), 2 mg/kg oral, male Beagle dogs, plasma, Mean; read-out: Vz/F
Experimental endpoint: Vd/F
Respond with a number, then the unit of measure.

Q) Returns the measured Vd/F for the input molecule. Input: COc1cc(Nc2nccc(Nc3cccnc3-c3ccccn3)n2)ccc1N1CCN(C)CC1
A) 85 L/kg
